Source of measurements: patent US9120749B2

- testedOn: MELK (Homo sapiens, UniProt Q14680)
- Sequence (Q14680 whole entry, looked up): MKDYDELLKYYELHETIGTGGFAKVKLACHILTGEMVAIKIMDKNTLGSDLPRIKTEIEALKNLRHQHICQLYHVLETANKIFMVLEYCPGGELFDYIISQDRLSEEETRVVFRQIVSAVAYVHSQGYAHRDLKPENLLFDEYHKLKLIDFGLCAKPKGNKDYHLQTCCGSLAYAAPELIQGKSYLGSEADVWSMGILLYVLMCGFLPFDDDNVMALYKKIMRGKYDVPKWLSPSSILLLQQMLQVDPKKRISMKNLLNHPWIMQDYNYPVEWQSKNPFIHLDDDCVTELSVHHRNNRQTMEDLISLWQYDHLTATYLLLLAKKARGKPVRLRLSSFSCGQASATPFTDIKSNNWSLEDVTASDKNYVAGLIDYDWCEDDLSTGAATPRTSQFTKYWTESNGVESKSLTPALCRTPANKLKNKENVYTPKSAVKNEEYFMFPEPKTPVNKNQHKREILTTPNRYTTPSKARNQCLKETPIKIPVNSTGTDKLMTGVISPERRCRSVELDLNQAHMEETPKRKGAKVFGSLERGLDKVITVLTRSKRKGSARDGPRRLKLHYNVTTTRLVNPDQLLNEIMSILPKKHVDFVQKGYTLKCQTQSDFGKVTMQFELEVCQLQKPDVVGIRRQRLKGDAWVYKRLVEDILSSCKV
- test: Kinase assay: MELK activity, phosphorylation of FITC-labeled histone H3 peptide measured by IMAP fluorescence polarization
- Assay type: biochemical
- experimentalConditions: read-out: IC50 (μM) (kinase assay)
Structures can show the parent of a compound that is named as a salt.
Please provide measured IC50 for the entries that follow.

Notebook: pull reported IC50 for MELK (Homo sapiens, UniProt Q14680), entry CC(C)(N)c1ccc(Nc2c(C(=O)C3CC3)cnc3ccc(-c4cc(F)c(O)c(Cl)c4)cc23)cc1 [Example 604]
0.0028 µM

Notebook: pull reported IC50 for MELK (Homo sapiens, UniProt Q14680), entry CN(C)C[C@H]1CC[C@@H](Nc2c(C(=O)C3CC3)cnc3ccc(-c4cc(F)c(O)c(Cl)c4)cc23)CC1 [Example 514]
0.0028 µM

Notebook: pull reported IC50 for MELK (Homo sapiens, UniProt Q14680), entry CN(C)CC(O)c1ccc(Nc2c(C(=O)C3CC3)cnc3ccc(-c4cc(Cl)c(O)c(Cl)c4)cc23)cc1 (stereo not shown) [Example 709]
0.0035 µM

Notebook: pull reported IC50 for MELK (Homo sapiens, UniProt Q14680), entry COc1cc(-c2ccc3ncc(C(C)=O)c(Nc4ccc(N5CCCC(N)C5)nc4)c3c2)cc(Cl)c1O (stereo not shown) [Example 688]
0.0032 µM

Notebook: pull reported IC50 for MELK (Homo sapiens, UniProt Q14680), entry CN(C)Cc1cccc(Nc2c(C(=O)C3CC3)cnc3ccc(-c4cc(Cl)c(O)c(Cl)c4)cc23)c1 [Example 624]
0.0016 µM

Notebook: pull reported IC50 for MELK (Homo sapiens, UniProt Q14680), entry COc1cc(-c2ccc3ncc(C(C)=O)c(Nc4ccc(N5CCNCC5)nc4)c3c2)cc(Cl)c1O [Example 704, hydrochloride]
0.0023 µM

Notebook: pull reported IC50 for MELK (Homo sapiens, UniProt Q14680), entry CCCC(=O)c1cnc2ccc(-c3cnc(C#N)nc3)cc2c1Nc1ccc(CN(C)C)cc1 [Example 539]
0.0038 µM

* * *

- Test system: T47D cells
- test: Cell-based assay: anti-proliferative activity, Cell Counting Kit-8, 72 hours (T47D)
- experimentalConditions: Homo sapiens, T47D, 72 h
measuredProperty: IC50 (µM)
// return numeric value only (unit: µM, not printed)

Notebook: pull reported IC50 for T47D cells, entry COc1cc(-c2ccc3ncc(C(=O)C4CC4)c(Nc4ccc(CN5CCN(C)CC5)cc4)c3c2)cc(Cl)c1O [Example 398]
0.78

Notebook: pull reported IC50 for T47D cells, entry NC1CCN(c2ncc(Nc3c(C(=O)C4CC4)cnc4ccc(-c5cc(F)c(O)c(Cl)c5)cc34)cn2)CC1 [Example 567]
0.076

Notebook: pull reported IC50 for T47D cells, entry CN1CCC(n2cc(Nc3c(C(=O)C4CC4)cnc4ccc(-c5cc(Cl)c(O)c(Cl)c5)cc34)cn2)CC1 [Example 593]
0.32

Notebook: pull reported IC50 for T47D cells, entry COc1cc(-c2ccc3ncc(C(=O)C4CC4)c(N[C@H]4CC[C@H](CN5CCC(OC)C5)CC4)c3c2)cc(Cl)c1O (stereo partly shown) [Example 599]
0.51

* * *

- System: 22Rv1
- test: Cell-based assay: anti-proliferative activity, Cell Counting Kit-8, 72 hours (22Rv1)
- experimentalConditions: Homo sapiens; 22Rv1 cells
Counter-ions that a name gives are not always drawn.
Please provide measured IC50 for the entries that follow.
// return numeric value only (unit: µM, not printed)

Quick one: IC50 of CC(=O)c1cnc2ccc(-c3cc(F)c(O)c(Cl)c3)cc2c1Nc1ccc(N2CCN(C)CC2)nc1 [Example 488] ?
0.38

Quick one: IC50 of NCc1ccc(Nc2c(C(=O)C3CC3)cnc3ccc(-c4cc(Cl)c(O)c(Cl)c4)cc23)cc1 [Example 508, hydrochloride] ?
0.099

Quick one: IC50 of O=C(c1cnc2ccc(-c3cc(F)c(O)c(Cl)c3)cc2c1Nc1ccc(N2CCNCC2)nc1)C1CC1 [Example 425] ?
0.082

* * *

- Test system: T47D cells
- test: Cell-based assay: anti-proliferative activity, Cell Counting Kit-8, 72 hours (T47D)
- experimentalConditions: Homo sapiens, T47D, 72 h
Counter-ions that a name gives are not always drawn.
measuredProperty: IC50 (µM)
// return numeric value only (unit: µM, not printed)

Quick one: IC50 of CC(=O)c1cnc2ccc(-c3cc(Cl)c(O)c(Cl)c3)cc2c1N[C@H]1CC[C@H](C(=O)NCCN(C)C)CC1 [Example 892, hydrochloride] ?
0.59

Quick one: IC50 of "CC(C)C(=O)c1cnc2ccc(-c3cc4cc(O)ccc4[nH]3)cc2c1N[C@H]1CC[C@H](N)CC1" ?
0.59

Quick one: IC50 of "CC(=O)c1cnc2ccc(-c3cc(Cl)c(O)c(Cl)c3)cc2c1N[C@H]1C[C@H](CN(C)C)C1" ?
0.6

* * *

- testedOn: MELK (Homo sapiens)
- test: Kinase assay: MELK activity, phosphorylation of FITC-labeled histone H3 peptide measured by IMAP fluorescence polarization
- Assay type: biochemical
- experimentalConditions: read-out: IC50 (μM) (kinase assay)
Where a name gives a salt, the structure may show the parent alone.
measuredProperty: IC50 (µM)
// return numeric value only (unit: µM, not printed)

Quick one: IC50 of C=CCN(CC=C)C1(C)CCC(Nc2c(C(=O)C3CC3)cnc3ccc(-c4cc(Cl)c(O)c(Cl)c4)cc23)CC1 (stereo not drawn) [Example 583] ?
0.089

Quick one: IC50 of CCN(CC)C[C@H]1CC[C@H](Nc2c(C(C)=O)cnc3ccc(-c4cc(Cl)c(O)c(OC)c4)cc23)CC1 [Example 791, hydrochloride] ?
0.0031

Quick one: IC50 of O=C(c1cnc2ccc(-c3cc(Cl)c(O)c(Cl)c3)cc2c1Nc1cnn(C2CCNCC2)c1)C1CC1 [Example 511] ?
0.017

Quick one: IC50 of CN1CCN(Cc2cccc(-c3c(C(=O)C4CC4)cnc4ccc(-c5cc(Cl)c(O)c(Cl)c5)cc34)c2)CC1 [Example 478] ?
0.0078

Quick one: IC50 of COc1cc(-c2ccc3ncc(C(=O)C4CC4)c(Nc4ccc(C(O)CN(C)C)cc4)c3c2)cc(Cl)c1O (stereo not drawn) [Example 708] ?
0.0065

Quick one: IC50 of O=C(c1cnc2ccc(-c3cc(F)c(O)c(F)c3)cc2c1Nc1ccc(CN2CCCC2)nc1)C1CC1 [Example 795] ?
0.035

* * *

- testedOn: MELK (Homo sapiens, UniProt Q14680)
- test: Kinase assay: MELK activity, phosphorylation of FITC-labeled histone H3 peptide measured by IMAP fluorescence polarization
- Format: biochemical
- experimentalConditions: read-out: IC50 (μM) (kinase assay)
Structures can show the parent of a compound that is named as a salt.
Please provide measured IC50 for the entries that follow.
// return numeric value only (unit: µM, not printed)

Quick one: IC50 of "CCCC(=O)c1cnc2ccc(-c3cc(F)c(O)c(Cl)c3)cc2c1Nc1ccc(N2CCNCC2)nc1" ?
0.011

Quick one: IC50 of NC1CCN(c2ccc(Nc3c(C(=O)C4CC4)cnc4ccc(-c5cc(F)c(O)c(Cl)c5)cc34)cn2)C1 (centres unmarked) ?
0.0019

Quick one: IC50 of "CC(C)C(=O)c1cnc2ccc(-c3cc4cc(O)ccc4[nH]3)cc2c1N[C@H]1CC[C@H](N)CC1" ?
0.054

Quick one: IC50 of "CCCC(=O)c1cnc2ccc(-c3cc(Cl)c(O)c(Cl)c3)cc2c1N[C@H]1CC[C@H](CN(C)C)CC1" ?
0.002

Quick one: IC50 of COc1cc(-c2ccc3ncc(C(=O)C4CC4)c(NC4CCC(N5CCC(OC)C5)CC4)c3c2)cc(Cl)c1O (centres unmarked) ?
0.0033

Quick one: IC50 of N[C@H]1CC[C@H](n2cc(Nc3c(C(=O)C4CC4)cnc4ccc(-c5cc(Cl)c(O)c(Cl)c5)cc34)cn2)CC1 [Example 706, dihydrochloride] ?
0.0011

Quick one: IC50 of "O=C(c1cnc2ccc(-c3cc(F)c(O)c(Cl)c3)cc2c1Nc1cccc(CCN2CCCC2)c1)C1CC1" ?
0.0047

Quick one: IC50 of "CN(C)Cc1ccc(Nc2c(C(=O)C3CC3)cnc3c(F)cc(-c4cc(Cl)c(O)c(Cl)c4)cc23)cc1" ?
0.58

Quick one: IC50 of CCC(=O)c1cnc2ccc(-c3cc(Cl)c(O)c(OC)c3)cc2c1Nc1ccc(N2CCC(N)C2)nc1 (centres unmarked) ?
0.0034

Quick one: IC50 of O=C(c1cnc2ccc(-c3cc(F)c(O)c(Cl)c3)cc2c1NC1CCC(N2CCC(F)(F)C2)CC1)C1CC1 (centres unmarked) ?
0.83

Quick one: IC50 of "CN(C)CC1CCN(c2c(C(=O)C3CC3)cnc3ccc(-c4ccc(C(=O)O)cc4)cc23)CC1" ?
1.4

Quick one: IC50 of "CN(C)CCc1ccc(Nc2c(C(=O)C3CC3)cnc3ccc(-c4cc(Cl)c(O)c(Cl)c4)cc23)cc1" ?
0.0022

Quick one: IC50 of "N[C@@H]1CCCN(c2ccc(Nc3c(C(=O)C4CC4)cnc4ccc(-c5cc(F)c(O)c(Cl)c5)cc34)cn2)C1" ?
0.00076

Quick one: IC50 of "COc1cc(-c2ccc3ncc(C(C)=O)c(N[C@H]4CC[C@H](CN5CCCC5)CC4)c3c2)cc(Cl)c1O" ?
0.0016

Quick one: IC50 of CC(=O)c1cnc2ccc(-c3cc(F)c(O)c(Cl)c3)cc2c1Nc1ccc(N2CCCC(N)C2)nc1 (centres unmarked) [Example 733] ?
0.00099

Quick one: IC50 of "N[C@H]1CCCN(c2ccc(Nc3c(C(=O)C4CC4)cnc4ccc(-c5cc(F)c(O)c(Cl)c5)cc34)cn2)C1" ?
0.0019

Quick one: IC50 of "O=C(c1cnc2ccc(-c3cc(Cl)c(O)c(Cl)c3)cc2c1NC1CCNCC1)C1CC1" ?
0.0057

Quick one: IC50 of "COc1cc(-c2ccc3ncc(C(=O)C4CC4)c(NC4CCNCC4)c3c2)cc(Cl)c1O" ?
0.0034

Quick one: IC50 of "COc1cc(-c2ccc3ncc(C(=O)C4CC4)c(C4=CCN(C(=O)CN(C)C)CC4)c3c2)cc(Cl)c1O" ?
0.0024

Quick one: IC50 of "COc1cc(-c2cc3c(Nc4ccc(CN(C)C)cc4)c(C(=O)C4CC4)cnc3cc2F)cc(Cl)c1O" ?
0.064
